test system: NCI-H2023; assay: relative viability (nuclei count vs DMSO), 5 days (fraction); higher = more cells survive; details: first compound 2.53 µM
Readings of relative viability for the listed molecules
Form field (numeric): enter value without unit.

INSERT INTO results (molecule, recorded_measurement) VALUES
  ('C=C1C(=O)O[C@@H](CCCCCCCC)[C@@H]1C(=O)O [C-75] + C[C@]1(O)C[C@@H](c2nc(-c3ccc4ccc(-c5ccccc5)nc4c3)c3c(N)nccn32)C1 [Linsitinib] (partner 1 µM)', 0.658),
  ('Oc1nc(-c2ccc(C(F)(F)F)cc2)nc2c1CSCC2 [XAV939] + O=C(c1cc(Cc2n[nH]c(=O)c3ccccc23)ccc1F)N1CCN(C(=O)C2CC2)CC1 [Olaparib] (partner 8 µM)', 0.402);

Pending molecule:
Give the reported relative viability for this molecule. C=C1C(=O)O[C@@H](CCCCCCCC)[C@@H]1C(=O)O [C-75] + Cc1nc(NC(=O)N2CCC[C@H]2C(N)=O)sc1-c1ccnc(C(C)(C)C(F)(F)F)c1 [Alpelisib] (partner 2 µM)
0.419
